# assay.method.text: chemical genetic growth profiling, strain panel (AID 1159580);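 further: tested at 20 µM; growth read once vehicle control cultures reached saturation at 30 °C; 1 = growth at the plate median or of vehicle wells; lower values mean less growth of the strain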
# details: S. cerevisiae deletion strains, growth OD, locus YER015W, strain faa2, stronger effect = lower value
Out of some 5,500 compounds screened, about 2,000 (36%) were called active. Another 18% or so got no clear call; they are omitted. The list shows a part of the results.
measured.attribute: normalized growth
Respond with the number and no other words.

response.value for COC(=O)C1[C@H]2C[C@H]3c4[nH]c5ccccc5c4CCN3C[C@@H]2CC[C@@H]1O (some centres not stated) (field: normalized growth) = 0.983

Measured normalized growth, Cc1ccc2c(c1)CC[C@H]1CC(=O)CC[C@]21C : 1.01

Field normalized growth (entry COc1ccc2c(c1)C1(C)CCC(=O)CC1CC2 (configuration not stated) ) reads 1.01

Sure, the documented normalized growth for OCC(O)Cc1ccc2c(c1)OCO2 (configuration not stated) is 1

Summary for this compound, O=C(Cc1ccccc1)NO : normalized growth is 0.98

get_value(item= CCc1ccc(CCOc2ccc(CC3SC(=O)NC3=O)cc2)nc1 (configuration not stated) , readout=normalized growth) returns 1.01

// normalized growth lookup, compound = c1ccc(CN(CC2=NCCN2)c2ccccc2)cc1 , result: 0.999

The measured normalized growth associated with OCc1ccccc1O[C@@H]1O[C@H](CO)[C@@H](O)[C@H](O)[C@H]1O reads 0.998

Recorded normalized growth (compound CCCCOc1ccc(CC(=O)NO)cc1 ): 1

Documented normalized growth of CCC1(c2ccc(N)cc2)CCC(=O)NC1=O (configuration not stated) : 0.966

# compound CN1CCc2cc3c(cc2C1O)OCO3 (configuration not stated) ; its normalized growth = 0.996

compound CC(=O)OCC(CCn1cnc2cnc(N)nc21)COC(C)=O , normalized growth observed: 1

Quick note, normalized growth for CCN(CC)C(=S)SSC(=S)N(CC)CC landed at 0.0589

normalized growth measured on C=CC1=C(C(=O)O)N2C(=O)[C@@H](NC(=O)/C(=N/O)c3csc(N)n3)[C@H]2SC1 = 1.02

Measured normalized growth, NC(N)=Nc1nc(CSCCC(N)=NS(N)(=O)=O)cs1 : 0.986

// normalized growth value for NC/C=C/C(=O)O : 1.01

Entry CNc1ccccc1C(=O)N1CCc2c([nH]c3ccccc23)C1=O , normalized growth reported as 0.992

Note to self: normalized growth recorded for COc1ccc(-c2coc3c(O)c(OC)ccc3c2=O)cc1 was 0.939

The recorded normalized growth for entry CN1CCCC(n2nc(Cc3ccc(Cl)cc3)c3ccccc3c2=O)CC1 (configuration not stated) equals 0.966

response.value for CC(C(=O)O)c1ccc2c(c1)[nH]c1ccc(Cl)cc12 (configuration not stated) (field: normalized growth) = 1

GET /value?item= S=C=NCc1ccccc1 &field=normalized growth returns 0.0762

Field normalized growth (entry COc1cccc2c1CCC1CC(=O)CCC21C (configuration not stated) ) reads 1

Sample CNC1(C)C2CCC(C2)C1(C)C (configuration not stated) ; normalized growth observed: 1

Record summary for CCc1nc(N)nc(N)c1-c1ccc(Cl)cc1 : reported normalized growth = 0.985

Short answer for CCC1(c2ccccc2)C(=O)NCNC1=O : normalized growth was 0.99

What the record says about CC(=O)CC(=O)CCC(=O)O : normalized growth is 1.02

Entry under test: c1ccc(CC2=NCCN2)cc1 . Its normalized growth was 1.01
